Test system: U2OS
assay-overview: Multiplex assay against U2OS
Assay type: toxicity, cell-based
applied-conditions: human, 12 h, 1 µM, compound concentration 1 uM, replicate 1
Hi there, I'd appreciate the recorded Population Fragmented Nuclei (%) for every entry that follows.
# unit: % | format: bare number

-- ask Data request, read-out Population Fragmented Nuclei (%), for `Cc1c[nH]c2nccc(Oc3c(F)cc(Nc4cc(Cl)nc(N)n4)cc3F)c12`
-- reply 15

-- ask Okay, and `O=c1cc(N2CCOCC2)oc2c(-c3cccc4c3sc3ccccc34)cccc12` ?
-- reply 12

-- ask Okay, and Cc1ccc2c(c1)c1c(n2CCc2ccc(C)nc2)CCN(C)C1 [LATREPIRDINE] ?
-- reply 8

-- ask Okay, and CCc1nn(CCCN2CCN(c3cccc(Cl)c3)CC2)c(=O)n1CCOc1ccccc1.Cl [NEFAZODONE HYDROCHLORIDE] ?
-- reply 11

-- ask Okay, and COc1cc2ncn(-c3cc(OCc4ccccc4C(F)(F)F)c(C(N)=O)s3)c2cc1OC [GW843682X] ?
-- reply 15

-- ask Okay, and `COC(=O)C1=C(C)NC(C)=C(C(=O)OCCCN2CCC(c3ccccc3)(c3ccccc3)CC2)[C@H]1c1cccc([N+](=O)[O-])c1` ?
-- reply 18

-- ask Okay, and `CC(C)Oc1ccccc1C(=O)Nc1ccccc1C(=O)Nc1cccc(S(=O)(=O)C(F)(F)F)c1` ?
-- reply 14

-- ask Okay, and `C=CC(=O)Nc1ccc2[nH]c(=O)n(C3CCN(Cc4ccc(-c5nc6cc[nH]c(=O)c6cc5-c5ccccc5)cc4)CC3)c2c1` ?
-- reply 5

-- ask Okay, and `C=CC(=O)Nc1cccc(Oc2nc(Nc3ccc(N4CCN(C)CC4)cc3OC)ncc2Cl)c1` ?
-- reply 27

-- ask Okay, and `Cc1nc(N2CC[C@H](O)C2)ncc1-c1cc(C(F)(F)F)cc2[nH]ncc12` ?
-- reply 2

-- ask Okay, and `C[C@]12CC[C@@H]3c4ccc(O)cc4CC[C@H]3[C@@H]1CC[C@@H]2O` ?
-- reply 8

-- ask Okay, and `CCCSc1nc(N[C@@H]2C[C@H]2c2ccc(F)c(F)c2)c2nnn([C@@H]3C[C@H](OCCO)[C@@H](O)[C@H]3O)c2n1` ?
-- reply 11

-- ask Okay, and `COc1ccc(-c2ccc3ncc4c(c3c2)n(-c2ccc(N3CCNCC3)c(C(F)(F)F)c2)c(=O)n4C)cn1.O=C(O)/C=C\C(=O)O` ?
-- reply 50

-- ask Okay, and `CC(C)CC(=O)Nc1[nH]nc2c1CN(C(=O)C1CCN(C)CC1)C2(C)C` ?
-- reply 3

-- ask Okay, and CC1=C(C(=O)Nc2cc3cn[nH]c3cc2F)C(c2ccc(C(F)(F)F)cc2)CC(=O)N1 (stereo unspecified) ?
-- reply 9

-- ask Okay, and `CC(C)(C)NC[C@H](O)COc1nsnc1N1CCOCC1` ?
-- reply 12
